The reported measurements were obtained from patent US20180085455A1.

Here, each record is paired with measured koff data.
targetOrTestSystem: T1, recombinant human ErbB3 protein (R&D systems) (human, UniProt P21860 20-643)
T1 construct: Bought recombinant protein; also called HER3
assayName: BLI (Octet QK384), human ErbB3 immobilized on AR2G sensor, IgG at 12.5-50 nM
Description: After activation of carboxyl groups in 20 mM of 1-ethyl-3-(3-dimethylaminopropyl)carbodiimide hydrochloride (EDC) and 40 mM of N-hydroxysulfosuccinimide (sulfo-NHS) solution on an AR2G sensor (ForteBio), 10 μg/mL of human ErbB3 protein solution diluted with 10 mM of sodium acetate (pH 4.0) (ForteBio) was added to immobilize human ErbB3 protein onto the AR2G sensor. […]
measurementName: koff (s⁻¹)

- binder: "451M4 (antibody, V domains shown, IgG1 (Selexis 085 vector, CHO)) VH: EVQLLESGGGLVQPGGSLRLSCAASGFTFSYYDMSWVRQAPGKGLEWVSAIYYDSGSIYYADSAKGRFTISRDNSKNTLYLQMNSLRAEDTAVYYCAKDRLFASDSTFDYWGQGTLVTVSS VL: QSVLTQPPSASGTPGQRVTISCSGSPSNIGNNSVTWYQQLPGTAPKLLIYYDSHRPSGVPDRFSGSKSGTSASLAISGLRSEDEADYYCGSWDASLNGYVFGGGTKLTVLG"
  measurementName: "koff"
  resultValue: "1.23e-05"
- binder: "451M3 (antibody, V domains shown, IgG1 (Selexis 085 vector, CHO)) VH: EVQLLESGGGLVQPGGSLRLSCAASGFTFSHYDMSWVRQAPGKGLEWVSAIYYDSGSIYYADSAKGRFTISRDNSKNTLYLQMNSLRAEDTAVYYCAKDRLFASDSTFDYWGQGTLVTVSS VL: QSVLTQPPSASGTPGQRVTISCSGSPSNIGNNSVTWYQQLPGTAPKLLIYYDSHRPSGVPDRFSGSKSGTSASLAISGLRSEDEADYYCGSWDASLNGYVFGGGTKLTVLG"
  measurementName: "koff"
  resultValue: "2.3e-07"
- binder: "451P (antibody, V domains shown, IgG1 (Selexis 085 vector, CHO); also called anti-ErbB3 lead antibody 451P) VH: EVQLLESGGGLVQPGGSLRLSCAASGFTFSDYDMSWVRQAPGKGLEWVSAIYYDSGSIYYADSAKGRFTISRDNSKNTLYLQMNSLRAEDTAVYYCAKDRLFVSDSTFDYWGQGTLVTVSS VL: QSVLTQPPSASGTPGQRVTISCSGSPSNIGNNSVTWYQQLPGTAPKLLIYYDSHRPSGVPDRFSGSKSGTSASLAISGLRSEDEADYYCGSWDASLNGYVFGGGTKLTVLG"
  measurementName: "koff"
  resultValue: "6.33e-05"
